All values here come from patent US20220119513A1.

Attribute: pKd
experimentalTarget: T1, TGFβ1 (R&D Systems)
T1 construct: also called TGFB1
T1 sequence (P01137 279-390): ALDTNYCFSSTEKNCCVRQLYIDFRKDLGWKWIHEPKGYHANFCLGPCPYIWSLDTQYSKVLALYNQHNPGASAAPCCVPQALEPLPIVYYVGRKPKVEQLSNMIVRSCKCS
protocolNotes: SPR full titration
pKd: −log10 of the molar value.

binder	pKd
Can-SL501-VH3 S112Q / Can-SL501-VL2 (antibody, V domains shown) VH: EVQLVESGGDLVKPGGSLRLSCVASGFTFSSYGMHWVRQAPGKELEWVAVISYDGSIKYYADAVKGRFTISRDNAKNTLYLQMNSLRAEDTAVYYCARTGEYSGYDTDPQYQWGQGTTVTVSS VL: EIVMTQSPGSLAGSAGESVSINCRASQGIGDDLGWYQQKPGERPKLLIYGTSTLQSGVPARFSSSGSGTDFTLTINNLQAEDVGDYYCLQDSNYPLTFGAGTK	11.04
Can-SL501-VH3 D108R / Can-SL501-VL2 (antibody, V domains shown) VH: EVQLVESGGDLVKPGGSLRLSCVASGFTFSSYGMHWVRQAPGKELEWVAVISYDGSIKYYADAVKGRFTISRDNAKNTLYLQMNSLRAEDTAVYYCARTGEYSGYDTRPQYSWGQGTTVTVSS VL: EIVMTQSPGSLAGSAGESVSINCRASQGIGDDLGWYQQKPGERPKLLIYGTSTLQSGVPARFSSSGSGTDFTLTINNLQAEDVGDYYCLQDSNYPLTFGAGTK	10.19
Can-SL501-VH3 S112E / Can-SL501-VL2 (antibody, V domains shown) VH: EVQLVESGGDLVKPGGSLRLSCVASGFTFSSYGMHWVRQAPGKELEWVAVISYDGSIKYYADAVKGRFTISRDNAKNTLYLQMNSLRAEDTAVYYCARTGEYSGYDTDPQYEWGQGTTVTVSS VL: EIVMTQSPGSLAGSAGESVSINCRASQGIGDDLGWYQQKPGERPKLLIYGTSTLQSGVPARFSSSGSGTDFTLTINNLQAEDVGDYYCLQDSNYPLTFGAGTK	10.82
Can-SL501-VH3 S112D / Can-SL501-VL2 (antibody, V domains shown) VH: EVQLVESGGDLVKPGGSLRLSCVASGFTFSSYGMHWVRQAPGKELEWVAVISYDGSIKYYADAVKGRFTISRDNAKNTLYLQMNSLRAEDTAVYYCARTGEYSGYDTDPQYDWGQGTTVTVSS VL: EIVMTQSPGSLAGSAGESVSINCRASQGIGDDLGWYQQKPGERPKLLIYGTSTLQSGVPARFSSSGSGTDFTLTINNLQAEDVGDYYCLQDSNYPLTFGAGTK	10.71
